Test system: PC-3 prostate
Test: NCI tumour cell line growth inhibition, 48 h
quantity.kind: TGI

Req: Print PC-3 prostate TGI for O=C(Nc1cccc(-n2cc(-c3ccncc3)c(-c3ccc(O)c(Cl)c3)n2)c1)c1cc(C(F)(F)F)cc(C(F)(F)F)c1 .
Resp: > 50 µM

Req: Print PC-3 prostate TGI for COc1cc(C(C[N+](=O)[O-])SC(C)=O)ccc1OCc1ccccc1 (stereo not given) .
Resp: 17.4 µM

Req: Print PC-3 prostate TGI for O=C(c1ccccc1)c1ccc2c(c1)nc1n2C(c2c(F)cccc2F)SC1 (stereo not given) .
Resp: > 100 µM

Req: Print PC-3 prostate TGI for CCOC(=O)c1nc2ccc(C(F)(F)F)cc2nc1Nc1ccc(F)cc1 .
Resp: > 100 µM

Req: Print PC-3 prostate TGI for CSc1nn(C)cc2nc(C)nc1-2 .
Resp: > 100 µM

* * *

System: TK-10 renal
Assay: NCI tumour cell line growth inhibition, 48 h; in the data active = GI50 below about 0.43 µM; inactive = the rest
Field 'call' accepts YES for active, NO for inactive

Illustrative cases are given below, each with its answer.
{"columns": ["compound", "qualitative.label"],
 "data": [
  ["COc1ccc(-c2[nH]nc(N)c2-c2cc(OC)c3c(c2)OCO3)cc1", "NO"],
  ["CCOc1ccc2c(c1)CN(Cc1ccc(Cl)cc1)CO2", "NO"],
  ["O=C(Nc1ccccc1C(F)(F)F)c1ccc(NC2=C(Cl)C(=O)N(Cc3ccccc3)C2=O)cc1", "NO"],
  ["COc1ccc2nc3cc([N+](=O)[O-])ccc3c(NNc3ccccc3)c2c1", "NO"],
  ["CCN(CC)CCC(CNc1ccnc2cc(Cl)ccc12)c1ccccc1 (stereo not drawn)", "NO"]
]}

Req: How did this test come out for COc1ccc(C(=O)O[C@H]2[C@H](O[C@H]3[C@@H](O)COC(O[C@H]4C[C@H]5[C@@H]6CC=C7C[C@@H](O)CC[C@]7(C)[C@H]6CC[C@]5(C)[C@H]4[C@H](C)C(=O)CCC(C)C)[C@@H]3OC(C)=O)OC[C@@H](O)[C@@H]2O)c(C)c1 (stereo partly drawn) ?
Resp: YES

Req: How did this test come out for NC1=NC(=O)/C(=C/c2ccc3ncccc3c2)S1 ?
Resp: NO

Req: How did this test come out for CN1CCN(c2ccc(NC(=O)c3cncnc3Nc3ccc(OCc4cccc(F)c4)c(Cl)c3)cc2)CC1 ?
Resp: NO

* * *

Test system: UACC-62 melanoma
Test: NCI tumour cell line growth inhibition, 48 h
Form field: TGI (one value per entry).

{"columns": ["compound", "TGI"],
 "data": [
  ["Clc1ccc(OCc2nnc3n2N=C(c2ccc(Br)cc2)CS3)cc1", "> 100 µM"]
]}

Req: Print UACC-62 melanoma TGI for CCOc1ccc(OCC)c([P+](c2ccccc2)(c2ccccc2)c2ccccc2)c1 .
Resp: 14.8 µM

Req: Print UACC-62 melanoma TGI for CCOC(=O)[C@@H]1ON2O[C@H](OC3CCCCC3c3ccccc3)C[C@H]3OC(=O)[C@@H]1C32 (stereo partly specified) .
Resp: > 100 µM

Req: Print UACC-62 melanoma TGI for Cc1ccc2nc(-c3ccc(NC(=O)c4ccc(N)cc4)c(S(=O)(=O)O)c3)sc2c1 .
Resp: > 100 µM

Req: Print UACC-62 melanoma TGI for COc1cc(C2c3[nH]c4ccccc4c3[C@@H](Nc3ccc(C#N)cc3)[C@H]3COC(=O)N23)cc(OC)c1O (stereo partly specified) .
Resp: 0.651 µM

Req: Print UACC-62 melanoma TGI for CC(C)N(C(=O)C12C3C4C1C1C2C3C41I)C(C)C (stereo unspecified) .
Resp: > 100 µM

Req: Print UACC-62 melanoma TGI for COc1ccc(C(=O)O[C@H]2[C@H](O[C@H]3[C@@H](O)COC(O[C@H]4C[C@H]5[C@@H]6CC=C7C[C@@H](O)CC[C@]7(C)[C@H]6CC[C@]5(C)[C@H]4[C@H](C)C(=O)CCC(C)C)[C@@H]3OC(C)=O)OC[C@@H](O)[C@@H]2O)c(C)c1 (stereo partly specified) .
Resp: < 0.01 µM

Req: Print UACC-62 melanoma TGI for C/C(=N\n1c(O)c(C#N)cc(C#N)c1=O)c1ccncc1 .
Resp: > 100 µM

Req: Print UACC-62 melanoma TGI for O=C(/C=C/C(Cl)(Cl)Cl)Nc1ccc(Cl)cc1 .
Resp: 21.2 µM

Req: Print UACC-62 melanoma TGI for COc1ccc(S(=O)(=O)N[C@H](C(=O)O)c2ccccc2)cc1 .
Resp: > 100 µM

Req: Print UACC-62 melanoma TGI for Clc1ccc(Nc2nc(Nc3ccccc3)nc(Nc3ccc(-c4cc(-c5ccc(Cl)cc5)on4)cc3)n2)cc1 .
Resp: 72.4 µM
